target: ERAP1 (Homo sapiens); assay: Time-course changes of trimming of N-terminal amino acid by ERAP1 (Experimental Example 2); assay type: biochemical; details: peptide obtained by trimming (SEQ ID NO: 53, 43 or 19); ERAP1 solution 0.5 mg/ml, room temperature, 2 hr
quantity kind: formation rate(%) 2 hr later

substance: H-CGLYDGMEHL-OH [Example 25]
quantity kind: formation rate(%) 2 hr later
reported result: 106%
//
substance: H-CMVLQELNVTV-OH [Example 24]
quantity kind: formation rate(%) 2 hr later
reported result: 34.5%
//
substance: H-CAVLQELNVTV-OH [Example 22]
quantity kind: formation rate(%) 2 hr later
reported result: 49.9%
//
substance: H-CLVLQELNVTV-OH [Example 23]
quantity kind: formation rate(%) 2 hr later
reported result: 36.9%
//
substance: H-CAGLYDGMEHL-OH [Example 26]
quantity kind: formation rate(%) 2 hr later
reported result: 99.4%
//
substance: H-CMGLYDGMEHL-OH [Example 28]
quantity kind: formation rate(%) 2 hr later
reported result: 103%
//
substance: H-CVLQELNVTV-OH [Example 21]
quantity kind: formation rate(%) 2 hr later
reported result: 85.6%
//
substance: H-CLGLYDGMEHL-OH [Example 27]
quantity kind: formation rate(%) 2 hr later
reported result: 94.9%

====

target: ERAP1 (Homo sapiens, UniProt Q9NZ08); test: Time-course changes of trimming of N-terminal amino acid by ERAP1 (Experimental Example 2); format: biochemical; details: peptide obtained by trimming (SEQ ID NO: 53, 43 or 19); ERAP1 solution 0.5 mg/ml, room temperature, 8 hr
Sequence (Q9NZ08 whole entry): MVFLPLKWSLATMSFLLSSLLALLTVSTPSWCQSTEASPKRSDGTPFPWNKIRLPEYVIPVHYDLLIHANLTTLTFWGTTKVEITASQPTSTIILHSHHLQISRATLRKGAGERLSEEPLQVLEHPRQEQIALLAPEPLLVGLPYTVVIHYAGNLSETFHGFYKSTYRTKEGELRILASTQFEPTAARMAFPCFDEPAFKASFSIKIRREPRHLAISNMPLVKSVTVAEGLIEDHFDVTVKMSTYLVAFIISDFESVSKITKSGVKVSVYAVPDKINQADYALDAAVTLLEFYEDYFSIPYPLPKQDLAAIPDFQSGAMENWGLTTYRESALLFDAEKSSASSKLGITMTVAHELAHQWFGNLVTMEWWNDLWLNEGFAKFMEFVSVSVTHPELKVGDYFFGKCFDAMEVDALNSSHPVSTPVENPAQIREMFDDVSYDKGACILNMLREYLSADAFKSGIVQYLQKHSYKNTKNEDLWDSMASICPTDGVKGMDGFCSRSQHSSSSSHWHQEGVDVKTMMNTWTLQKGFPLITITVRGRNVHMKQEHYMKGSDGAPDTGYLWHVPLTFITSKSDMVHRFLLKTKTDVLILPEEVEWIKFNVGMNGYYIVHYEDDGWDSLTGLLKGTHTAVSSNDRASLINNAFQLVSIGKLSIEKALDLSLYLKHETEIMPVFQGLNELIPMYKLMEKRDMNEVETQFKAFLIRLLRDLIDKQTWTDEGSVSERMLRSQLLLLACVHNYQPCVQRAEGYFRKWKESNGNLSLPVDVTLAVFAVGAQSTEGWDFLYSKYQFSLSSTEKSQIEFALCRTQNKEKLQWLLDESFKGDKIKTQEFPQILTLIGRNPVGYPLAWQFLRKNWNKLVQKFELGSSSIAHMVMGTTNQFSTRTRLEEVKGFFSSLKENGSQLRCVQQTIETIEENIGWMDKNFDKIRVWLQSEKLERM

substance: H-CVLQELNVTV-OH [Example 21]
formation rate(%) 8 hr later: 83.9%
--
substance: H-CAGLYDGMEHL-OH [Example 26]
formation rate(%) 8 hr later: 97.5%
--
substance: H-CAVLQELNVTV-OH [Example 22]
formation rate(%) 8 hr later: 53.5%
--
substance: H-CMVLQELNVTV-OH [Example 24]
formation rate(%) 8 hr later: 36.8%
--
substance: H-CMGLYDGMEHL-OH [Example 28]
formation rate(%) 8 hr later: 101%
--
substance: H-CLVLQELNVTV-OH [Example 23]
formation rate(%) 8 hr later: 36.1%
--
substance: H-CLGLYDGMEHL-OH [Example 27]
formation rate(%) 8 hr later: 88.3%
--
substance: H-CGLYDGMEHL-OH [Example 25]
formation rate(%) 8 hr later: 101%

====

target: ERAP1 (Homo sapiens); experiment: Time-course changes of trimming of N-terminal amino acid by ERAP1 (Experimental Example 2); format: biochemical; conditions: peptide obtained by trimming (SEQ ID NO: 53, 43 or 19); ERAP1 solution 0.5 mg/ml, room temperature, 1 hr

substance: H-CAVLQELNVTV-OH [Example 22]
study system: ERAP1 (Homo sapiens)
formation rate(%) 1 hr later: 46.1

substance: H-CMVLQELNVTV-OH [Example 24]
study system: ERAP1 (Homo sapiens)
formation rate(%) 1 hr later: 28.7

substance: H-CMGLYDGMEHL-OH [Example 28]
study system: ERAP1 (Homo sapiens)
formation rate(%) 1 hr later: 90.6

substance: H-CAGLYDGMEHL-OH [Example 26]
study system: ERAP1 (Homo sapiens)
formation rate(%) 1 hr later: 87.8

substance: H-CVLQELNVTV-OH [Example 21]
study system: ERAP1 (Homo sapiens)
formation rate(%) 1 hr later: 83.4

substance: H-CLGLYDGMEHL-OH [Example 27]
study system: ERAP1 (Homo sapiens)
formation rate(%) 1 hr later: 58.3

substance: H-CGLYDGMEHL-OH [Example 25]
study system: ERAP1 (Homo sapiens)
formation rate(%) 1 hr later: 95.1

substance: H-CLVLQELNVTV-OH [Example 23]
study system: ERAP1 (Homo sapiens)
formation rate(%) 1 hr later: 31.1
